assay-protocol: AUC (0 to 8 hrs) in human plasma at 500 mg, po, bid for 3 to 5 days
Format: ADME, organism-based
Parameters: dose 500 mg, time < 8 hr, route oral
attribute-measured: AUC at 8 h (ng·h/mL)
Give just the numeric value; ng·h/mL need not be written.

Prompt line: Kindly indicate its recorded AUC at 8 h. Item: CC[C@H]1OC(=O)[C@H](C)[C@@H](O[C@H]2C[C@@](C)(OC)[C@@H](O)[C@H](C)O2)[C@H](C)[C@@H](O[C@@H]2O[C@H](C)C[C@H](N(C)C)[C@H]2O)[C@](C)(OC)C[C@@H](C)C(=O)[C@H](C)[C@@H](O)[C@]1(C)O
Response line: 10600

###

assay-protocol: Tmax in human interstitial-space fluid of subcutaneous adipose tissue at 500 mg, po, bid for 3 to 5 days
Type: ADME, organism-based
attribute-measured: Tmax (h)
Give just the numeric value; h need not be written.

Prompt line: Kindly indicate its recorded Tmax. Item: CC[C@H]1OC(=O)[C@H](C)[C@@H](O[C@H]2C[C@@](C)(OC)[C@@H](O)[C@H](C)O2)[C@H](C)[C@@H](O[C@@H]2O[C@H](C)C[C@H](N(C)C)[C@H]2O)[C@](C)(OC)C[C@@H](C)C(=O)[C@H](C)[C@@H](O)[C@]1(C)O
Response line: 4

###

assay-protocol: Ratio of AUC (0 to 24 hrs) in fasting human interstitial-space fluid of subcutaneous adipose tissue to free AUC (0 to 24 hrs) in fasting human plasma at 250 mg, po
Format: ADME, organism-based
condition-parameters: read-out: Ratio AUC
attribute-measured: Kp uu
The response must contain the number and no unit.

Prompt line: Kindly indicate its recorded Kp uu. Item: CC[C@H]1OC(=O)[C@H](C)[C@@H](O[C@H]2C[C@@](C)(OC)[C@@H](O)[C@H](C)O2)[C@H](C)[C@@H](O[C@@H]2O[C@H](C)C[C@H](N(C)C)[C@H]2O)[C@](C)(OC)C[C@@H](C)C(=O)[C@H](C)[C@@H](O)[C@]1(C)O
Response line: 0.29

###

assay-protocol: Cmax in fasting human interstitial-space fluid of skeletal muscle at 250 mg, po
Assay type: ADME, organism-based, Muscle tissue
Parameters: dose 250 mg, route oral
attribute-measured: Cmax (ng/mL)
Give just the numeric value; ng/mL need not be written.

Prompt line: Kindly indicate its recorded Cmax. Item: CC[C@H]1OC(=O)[C@H](C)[C@@H](O[C@H]2C[C@@](C)(OC)[C@@H](O)[C@H](C)O2)[C@H](C)[C@@H](O[C@@H]2O[C@H](C)C[C@H](N(C)C)[C@H]2O)[C@](C)(OC)C[C@@H](C)C(=O)[C@H](C)[C@@H](O)[C@]1(C)O
Response line: 80

###

assay-protocol: Total clearance in fasting human plasma at 250 mg, po
Type: ADME, organism-based
attribute-measured: CL/F (mL/min)
Give just the numeric value; mL/min need not be written.

Prompt line: Kindly indicate its recorded CL/F. Item: CC[C@H]1OC(=O)[C@H](C)[C@@H](O[C@H]2C[C@@](C)(OC)[C@@H](O)[C@H](C)O2)[C@H](C)[C@@H](O[C@@H]2O[C@H](C)C[C@H](N(C)C)[C@H]2O)[C@](C)(OC)C[C@@H](C)C(=O)[C@H](C)[C@@H](O)[C@]1(C)O
Response line: 620
